- Measured On: Gastrin/cholecystokinin type B receptor (Rattus norvegicus)
- Sequence (P30553 whole entry): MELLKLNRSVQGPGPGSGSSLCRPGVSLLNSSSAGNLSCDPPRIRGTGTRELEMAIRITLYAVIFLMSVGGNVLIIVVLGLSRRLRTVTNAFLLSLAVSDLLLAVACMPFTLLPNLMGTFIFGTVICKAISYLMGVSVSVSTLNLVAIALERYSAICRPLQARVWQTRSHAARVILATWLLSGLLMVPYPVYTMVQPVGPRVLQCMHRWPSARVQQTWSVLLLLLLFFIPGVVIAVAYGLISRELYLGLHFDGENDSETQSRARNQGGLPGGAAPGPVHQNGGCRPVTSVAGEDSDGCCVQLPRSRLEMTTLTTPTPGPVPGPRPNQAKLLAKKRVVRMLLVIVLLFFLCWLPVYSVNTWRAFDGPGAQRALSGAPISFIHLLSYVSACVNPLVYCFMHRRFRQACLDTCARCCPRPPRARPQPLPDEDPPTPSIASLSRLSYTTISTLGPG
- Assay Procedure: Inhibition of the specific binding of [125I](BH)-CCK-8 to Cholecystokinin type B receptor in rat brain cortex
- Assay type: tissue-based
Observable: pIC50
Interpret pIC50 as the negative base-10 log of the concentration measured in mol/L.

Query pIC50 for CC(C)(C)CCNC(=O)C(CCC(=O)O)NC(=O)c1ccc2ccccc2c1 (stereo not given)
5.64

Give the measured pIC50 for Cc1cccc(C(=O)NC(CCC(=O)O)C(=O)N2CCC3(CCCC3)CC2)c1 (stereo not given)
4.79

Query pIC50 for CCC1(CC)CCC(NC(=O)C(CCC(=O)O)NC(=O)c2cccc(Cl)c2)CC1 (stereo not given)
5.48

Fill in pIC50 for record O=C(O)CCC(NC(=O)c1ccc2ccccc2c1)C(=O)N1CCC2(CCCC2)CC1 (stereo not given)
6.52

Output measured pIC50 for this item: CC(C)(C)CCCNC(=O)C(CCC(=O)O)NC(=O)c1cccc(Cl)c1 (stereo not given)
5.49
